Test: caspase activation in A1-primed MEFs – cell-based, CaspaseGlo luminescence, A1 inhibitor project, primary screen (AID 2241);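 also: effector caspase 3 and 7 activity cleaving a DEVD luciferin substrate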
Details: MEF A1-2A-BIM cells, caspase-Glo luminescence, 3 h; active compounds read high; percent of clofoctol signal, DMSO as zero; concentration not given here
Hit rate of the full screen: of about 21,000 compounds, about 110 (0.52%) were called active. Shown is part of a subset that was picked to be rich in actives.
ASSAY ENDPOINT: caspase activation (%)
The reply should be a number in %, with the unit left off.

Reported caspase activation for C[C@@H]1CN([C@@H](C)CO)C(=O)c2cc(NC(=O)Cc3ccccc3)ccc2O[C@@H]1CN(C)S(=O)(=O)c1ccccc1 : what is it?
0.193

I have this compound here, N#CCNC(=O)CN1C(=O)c2ccccc2C1=O , and I need its recorded caspase activation.
0.74

// caspase activation lookup, key: O=C(CC1N=C2c3ccccc3N=C(SCc3ccccc3F)N2C1=O)NC1CCCCC1 (stereo not drawn)
-0.498

New cases:
Requested field: caspase activation. Item: NC(=S)c1nc(-c2ccccc2)oc1N
-1.84

Value lookup for caspase activation; key = C[C@H]1O[C@@H](O[C@H]2[C@@H](O)C[C@H](O[C@H]3[C@@H](O)C[C@H](O[C@H]4CC[C@]5(C)C6C[C@@H](O)[C@]7(C)[C@@H](C8=CC(=O)OC8)CC[C@]7(O)C6CC[C@@H]5C4)O[C@@H]3C)O[C@@H]2C)C[C@H](O)[C@@H]1O (stereo partly drawn)
0.786

GET /values?readout=caspase activation&item= CC1=CCC(C(=O)O)(C(=O)NCc2ccccc2)C(c2ccc(Br)cc2)C1 (stereo not drawn)
0.252

Given CC(C)(C)c1ccc(Cn2c(=N)n(CC(=O)O)c3ccccc32)cc1 , state its recorded caspase activation.
-0.508

What does the record list as caspase activation for C[C@@H]1CN([C@H](C)CO)C(=O)c2cc(NC(=O)c3ccncc3)ccc2O[C@H]1CN(C)Cc1ccc(Oc2ccccc2)cc1 ?
-0.569
